target: Calcium-activated potassium channel subunit alpha-1 (Rattus norvegicus, UniProt Q62976); assay: Activation of BK channel in Wistar rat thoracic aorta assessed as relaxation of KCl-induced contraction
Sequence (Q62976 whole entry): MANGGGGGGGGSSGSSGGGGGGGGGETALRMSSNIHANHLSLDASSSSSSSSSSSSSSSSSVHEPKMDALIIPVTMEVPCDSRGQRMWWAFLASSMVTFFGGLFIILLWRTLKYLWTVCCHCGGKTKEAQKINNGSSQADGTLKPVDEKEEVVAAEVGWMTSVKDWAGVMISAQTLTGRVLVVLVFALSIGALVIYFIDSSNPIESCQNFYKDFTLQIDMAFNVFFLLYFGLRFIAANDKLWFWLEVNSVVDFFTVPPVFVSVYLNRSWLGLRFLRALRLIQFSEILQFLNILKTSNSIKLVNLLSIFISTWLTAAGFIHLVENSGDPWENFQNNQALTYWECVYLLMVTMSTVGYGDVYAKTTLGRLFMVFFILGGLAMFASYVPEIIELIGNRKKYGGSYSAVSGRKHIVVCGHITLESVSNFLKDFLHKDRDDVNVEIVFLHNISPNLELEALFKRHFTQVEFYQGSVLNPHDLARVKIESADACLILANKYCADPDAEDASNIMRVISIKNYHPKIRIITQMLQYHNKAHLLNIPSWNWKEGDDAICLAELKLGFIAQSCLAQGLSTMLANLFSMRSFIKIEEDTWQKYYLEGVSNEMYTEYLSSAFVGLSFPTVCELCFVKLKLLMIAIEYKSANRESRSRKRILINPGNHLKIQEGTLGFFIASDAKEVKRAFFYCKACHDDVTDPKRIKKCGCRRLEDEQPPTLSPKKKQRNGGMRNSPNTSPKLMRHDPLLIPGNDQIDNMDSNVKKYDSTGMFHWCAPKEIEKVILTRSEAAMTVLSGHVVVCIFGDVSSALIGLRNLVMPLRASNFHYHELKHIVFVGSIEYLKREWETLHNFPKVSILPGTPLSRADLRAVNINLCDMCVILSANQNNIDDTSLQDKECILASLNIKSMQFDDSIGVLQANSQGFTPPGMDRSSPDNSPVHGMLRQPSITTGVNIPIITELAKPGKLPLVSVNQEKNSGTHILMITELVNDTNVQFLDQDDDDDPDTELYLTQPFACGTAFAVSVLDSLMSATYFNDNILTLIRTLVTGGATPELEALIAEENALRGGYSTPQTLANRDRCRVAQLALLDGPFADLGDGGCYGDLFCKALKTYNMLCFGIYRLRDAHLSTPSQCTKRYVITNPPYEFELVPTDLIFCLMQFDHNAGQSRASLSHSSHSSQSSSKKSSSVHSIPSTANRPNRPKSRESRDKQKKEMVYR
pIC50: −log10 of the molar value.
assay_endpoint: pIC50

given_smiles | value
O=c1[nH]c2cc(C(F)(F)F)ccc2n1-c1cc(C(F)(F)F)ccc1O | 5.29
Cc1c(C(=O)Nc2ccccc2O)nnn1Cc1ccccc1O | 4.69
Cc1c(C(=O)Nc2ccccc2)nnn1Cc1ccccc1O | 4.75
Cc1c(C(=O)NCc2ccccc2O)nnn1Cc1ccccc1O | 4.66

----------
target: Calcium-activated potassium channel subunit alpha-1 (Rattus norvegicus) (UniProt Q62976); assay: Activation of BK channel in Wistar rat thoracic aorta assessed as relaxation of KCl-induced contraction; format: tissue-based
Sequence (Q62976 whole entry): as above
Kind request: treat 50% as inclusive, so Emax at 50% or higher is t, anything lower is f.

given_smiles | category_label
Cc1c(C(=O)Nc2ccccc2O)nnn1Cc1ccccc1O | t
Cc1c(C(=O)NCc2ccccc2O)nnn1Cc1ccccc1F | f
Cc1c(C(=O)Nc2ccccc2O)nnn1Cc1ccccc1F | f
Cc1c(C(=O)NCc2ccccc2)nnn1Cc1ccccc1O | f
Cc1c(C(=O)Nc2ccccc2)nnn1Cc1ccccc1O | t
Cc1c(C(=O)Nc2ccc(Cl)cc2)nnn1Cc1ccccc1O | t
Cc1c(C(=O)NCc2ccccc2O)nnn1Cc1ccccc1O | t
Cc1c(C(=O)Nc2ccccc2O)nnn1Cc1ccccc1Cl | t
O=c1[nH]c2cc(C(F)(F)F)ccc2n1-c1cc(C(F)(F)F)ccc1O | t

Origin of the recorded values: ChEMBL document CHEMBL1154477
